All figures here come from patent US10947242B2.

// reported Emax for each item listed
measurementTarget: Human recombinant PDE10A (hPDE10A) (Homo sapiens, UniProt Q9Y233)
Construct: His tag (inferred from metal chelate purification); made in house; host or cells: Sf9 insect cells (baculovirus)
Sequence (Q9Y233 267-1055): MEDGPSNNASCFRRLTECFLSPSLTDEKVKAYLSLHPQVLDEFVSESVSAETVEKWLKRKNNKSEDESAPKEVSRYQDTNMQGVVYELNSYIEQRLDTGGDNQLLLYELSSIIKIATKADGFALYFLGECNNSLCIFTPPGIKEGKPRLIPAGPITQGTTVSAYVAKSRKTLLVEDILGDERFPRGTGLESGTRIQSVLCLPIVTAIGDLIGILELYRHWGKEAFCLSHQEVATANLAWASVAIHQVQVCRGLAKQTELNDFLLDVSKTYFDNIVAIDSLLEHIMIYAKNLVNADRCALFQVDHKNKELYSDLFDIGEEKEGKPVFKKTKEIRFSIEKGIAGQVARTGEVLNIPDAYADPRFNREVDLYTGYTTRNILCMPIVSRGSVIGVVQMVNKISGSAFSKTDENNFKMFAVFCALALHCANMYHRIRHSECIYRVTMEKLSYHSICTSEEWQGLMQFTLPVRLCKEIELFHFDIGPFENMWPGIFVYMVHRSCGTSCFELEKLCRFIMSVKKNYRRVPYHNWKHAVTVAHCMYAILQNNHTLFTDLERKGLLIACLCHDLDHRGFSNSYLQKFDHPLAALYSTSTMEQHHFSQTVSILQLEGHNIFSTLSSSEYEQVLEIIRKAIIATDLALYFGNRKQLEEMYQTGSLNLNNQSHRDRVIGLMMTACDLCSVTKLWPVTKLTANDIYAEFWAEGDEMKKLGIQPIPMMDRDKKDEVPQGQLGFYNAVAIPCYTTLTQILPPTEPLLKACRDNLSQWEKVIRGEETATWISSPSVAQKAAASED
assayDetails: In vitro assay PDE10A, human clone (SPA, 3H-cAMP hydrolysis)
Type: biochemical
conditionSet: human clone (h), default; read-out: hPDE10A2 Emax
In your response, the unit should come after the numeric value.

Here are 5 compounds together with their reported answers.
# compound, observedMeasurement
measured = [
    ("CC(C)Oc1cc(C(=O)N2CC[C@@H](C)[C@H](c3cc(C(F)F)nc4ncnn34)C2)cc(C(C)C)c1 [Compound 144]", "96%"),
    ("Cc1nccc(C(=O)N2CC[C@@H](C)[C@H](c3cc(C(F)F)nc4ncnn34)C2)c1F [Compound 68]", "85%"),
    ("CCCC[C@@H]1CCN(C(=O)c2cc(C)nc(C)c2)C[C@H]1c1cc(C(F)F)nc2ncnn12 (mixture of isomers) [Compound 44]", "79%"),
    ("COc1cc(C(=O)N2CC[C@@H](C)[C@H](c3cc(C)nc4ncnn34)C2)c(C(F)(F)F)cn1 [Compound 37]", "93%"),
    ("Cc1nc2cc(C(=O)N3CC[C@@H](C)[C@H](c4cc(C(F)F)nc5ncnn45)C3)ccc2o1 [Compound 188]", "98%"),
]

Known value: Human recombinant PDE10A (hPDE10A) (Homo sapiens, UniProt Q9Y233) Emax of the compound COc1nc(N)ncc1C(=O)N1CC[C@@H](C)[C@H](c2cc(C(F)F)nc3ncnn23)C1 [Compound 38] equals 80%

Known value: Human recombinant PDE10A (hPDE10A) (Homo sapiens, UniProt Q9Y233) Emax of the compound C[C@@H]1CCN(C(=O)c2c[nH]c3ccc(F)cc23)C[C@H]1c1cc(C(F)F)nc2ncnn12 [Compound 112] equals 99%

Known value: Human recombinant PDE10A (hPDE10A) (Homo sapiens, UniProt Q9Y233) Emax of the compound C[C@@H]1CCN(C(=O)c2noc3ccccc23)C[C@H]1c1cc(C(F)F)nc2ncnn12 [Compound 187] equals 95%

Known value: Human recombinant PDE10A (hPDE10A) (Homo sapiens, UniProt Q9Y233) Emax of the compound CCCOc1cccnc1C(=O)N1CC[C@@H](C)[C@H](c2cc(C(F)F)nc3ncnn23)C1 [Compound 246] equals 44%

Known value: Human recombinant PDE10A (hPDE10A) (Homo sapiens, UniProt Q9Y233) Emax of the compound C[C@@H]1CCN(C(=O)c2cccc3c2OC(F)(F)O3)C[C@H]1c1cc(C(F)F)nc2ncnn12 [Compound 63] equals 89%
